Just for reference, PubChem BioAssay AID272 is where these values come from.

I'd appreciate it if you could supply T/C values for the items below.
tested on: Lewis lung carcinoma i.m., BDF1 mice, T/C %; assay: NCI In Vivo Anticancer Drug Screen. Data for tumor model Lewis Lung Carcinoma (intramuscular) in B6D2F1 (BDF1) mice; conditions: endpoint: median survival time; dose: 10.0 mg/kg/injection; schedule: Q01DX011 (ip); vehicle: saline with Tween-80; higher = longer survival
Records with an inconclusive call do not appear.

Solved entries (count: 2):
Exercise: // fetch T/C given entry O=C(CBr)c1ccc(I)cc1
Key: 104 % of control

Exercise: // fetch T/C given entry NC(=O)c1cc(N2CC2)c([N+](=O)[O-])cc1[N+](=O)[O-]
Key: 94 % of control

Please look at the following compound next.
Exercise: // fetch T/C given entry O=C(CBr)OCCOc1ccccc1
Key: 104 % of control
